test: sensitizers of A549 cells to miR-34 induction, primary screen, imaging, A549 dox-inducible miR-34, nuclei and caspase counts (AID 1347080); conditions: A549 miR-34 inducible, Hoechst nuclei count, 48 h; measured here: total cells without miR-34 induction; note: test concentration not given here
Measured metric: cell count

>>> measured_result("C=C1N[C@@H](Cc2ccc3[nH]cc(CCN(C)C)c3c2)CO1")
11400
>>> measured_result("C[C@]12Cc3cn4c(nc3C=C1CCC1C2CC[C@@]2(C)[C@H]1CC[C@@]2(O)C#N)nc1ccccc14 (stereo not given in full)")
1350
>>> measured_result("C=CCN1C[C@H](C)N([C@H](c2ccc(C(=O)N(CC)CC)cc2)c2cccc(O)c2)C[C@H]1C")
8780
>>> measured_result("CC(C)=CCOc1c2occc2cc2ccc(=O)oc12")
8010
>>> measured_result("CC[N+](CC)(CCCNC1=CC(=O)C(NCCC[N+](CC)(CC)Cc2ccccc2)=CC1=O)Cc1ccccc1")
9410
>>> measured_result("CC(C)(Cc1c[nH]c2ccc(Cl)cc12)NCCOc1ccccc1OCC1CC1")
246
>>> measured_result("CN1CCc2cc(O)cc3c2[C@H]1Cc1ccc(O)c(O)c1-3")
9390
>>> measured_result("COc1cc2c(c(OC)c1OC)-c1ccc(O)c(=O)cc1[C@@H](N)CC2")
6460
>>> measured_result("CC(=O)O[C@@]12CO[C@@H]1CC(O)[C@@]1(C)C(=O)C(O)C3=C(C)C(O)C[C@@](O)(C(OC(=O)c4ccccc4)[C@H]21)C3(C)C (stereo not given in full)")
6370
>>> measured_result("NCCc1ccc(O)cc1")
10400
>>> measured_result("CCCCC/C=C\\C/C=C\\C/C=C\\C/C=C\\CCCC(=O)N[C@@H](CO)C(=O)O")
5540
>>> measured_result("NC(Cc1cc(O)c(O)cc1O)C(=O)O (stereo not given)")
8570
>>> measured_result("Cc1cc(C)cc(C(=O)OC2CC3CCC(C2)N3C)c1 (stereo not given)")
8850
>>> measured_result("CCN(CC)c1ncnc2c1ncn2[C@@H]1O[C@H](COP(=O)(O)OP(=O)(O)C(Br)(Br)P(=O)(O)O)[C@@H](O)[C@H]1O")
10200
>>> measured_result("COc1cccc([C@@]2(O)CCCC[C@@H]2CN(C)C)c1")
10700
>>> measured_result("NC=Nc1ccc2[nH]c3c(c2c1)C[C@@]1(O)C2Cc4ccc(O)c5c4[C@@]1(CCN2CC1CC1)[C@H]3O5")
10100
>>> measured_result("C1=C2CCCN[C@H]2[C@@H]2C[C@H]1[C@H]1CCCCN1C2")
10600
>>> measured_result("CC(=O)NBr")
10100
>>> measured_result("C[C@]12CCC(=O)C=C1C=CC1C2CC[C@@]2(C)C1CC[C@@]2(O)CCC(=O)O (stereo not given in full)")
13100
>>> measured_result("CC1OC(OC2CC(O)[C@]3(CO)[C@H]4C(O)C[C@]5(C)C(C6=CC(=O)OC6)CC[C@]5(O)[C@@H]4CC[C@]3(O)C2)C(O)C(O)C1O (stereo not given in full)")
456
>>> measured_result("CCCCC/C=C\\C/C=C\\C/C=C\\C/C=C\\CCCC(=O)Nc1ccc(O)cc1C")
5870
>>> measured_result("C[N+]1(C)[C@@H]2CC(OC(=O)C(CO)c3ccccc3)C[C@H]1[C@@H]1O[C@@H]12 (stereo not given in full)")
9160
>>> measured_result("Nc1cc2c(ncn2CCOCP(=O)(O)O)c(=O)[nH]1")
3200
>>> measured_result("CN1C(=O)COc2c(C(=O)NC3CN4CCC3CC4)cc(Cl)cc21 (stereo not given)")
10100
>>> measured_result("COc1ccc(-n2nc(C(F)(F)F)cc2-c2ccc(Cl)cc2)cc1")
7710
>>> measured_result("COc1ccc(C(=O)O[C@H]2CC[C@@]3(C)[C@@H]4CC[C@H]5[C@]6(O)C[C@H](O)[C@@]7(O)[C@@H](CN8C[C@@H](C)CC[C@H]8[C@@]7(C)O)[C@]6(O)C[C@@]53O[C@]24O)cc1OC")
6480
>>> measured_result("CC(=O)Nc1ccc(Cc2ccc(NC(C)=O)cc2)cc1")
9400
>>> measured_result("CCC(=O)O[C@H]1CC[C@H]2[C@@H]3CCC4=CC(=O)CC[C@]4(C)[C@H]3CC[C@]12C")
9360
>>> measured_result("CCCCC/C=C\\C=C\\[C@H](CCCCCCCC(=O)O)OO")
6320
>>> measured_result("C[C@]12CCC3C4CCC(=O)C=C4CCC3C1CCC2O (stereo not given in full)")
8920
>>> measured_result("C=C(C)[C@H]1O[C@H]2CC[C@@]3(C)[C@@](O)(CC[C@H]4[C@@H]5OC(C)(C)[C@H]6C[C@@H]7C(=C)Cc8c(Cl)cc9[nH]c(c5c9c8[C@@]76O)[C@@]43C)[C@]23O[C@@H]3[C@H]1O")
826
>>> measured_result("CN1CC[C@@H]2CN3CCc4cccc(c43)[C@@H]2C1")
8850
>>> measured_result("CC(=O)NC1CCSC1=O (stereo not given)")
8510
>>> measured_result("NCCc1ccc(S(N)(=O)=O)cc1")
10400
>>> measured_result("CCCC(C)C1(CC)C(=O)NC(=O)NC1=O (stereo not given)")
12200
>>> measured_result("O=C(O)CCC(CP(=O)(O)O)C(=O)O (stereo not given)")
9860
>>> measured_result("COc1ccc2[nH]c3c(c2c1)CCN=C3C")
9590
>>> measured_result("NC(=O)c1ccc(OCC(O)CN2CC=C(c3ccc(F)cc3)CC2)cc1 (stereo not given)")
9570
>>> measured_result("C=CCN1CC[C@]23CCCCC2[C@H]1Cc1ccc(O)cc13 (stereo not given in full)")
10000
>>> measured_result("CC[C@@]1(O)C(=O)OCc2c1cc1n(c2=O)-c2cc3ccccc3nc2C1")
1300
